In this section we review reported Activity values for a set of molecules.
Tested System: Estrogen receptor (Homo sapiens) (UniProt P03372)
Sequence (whole entry): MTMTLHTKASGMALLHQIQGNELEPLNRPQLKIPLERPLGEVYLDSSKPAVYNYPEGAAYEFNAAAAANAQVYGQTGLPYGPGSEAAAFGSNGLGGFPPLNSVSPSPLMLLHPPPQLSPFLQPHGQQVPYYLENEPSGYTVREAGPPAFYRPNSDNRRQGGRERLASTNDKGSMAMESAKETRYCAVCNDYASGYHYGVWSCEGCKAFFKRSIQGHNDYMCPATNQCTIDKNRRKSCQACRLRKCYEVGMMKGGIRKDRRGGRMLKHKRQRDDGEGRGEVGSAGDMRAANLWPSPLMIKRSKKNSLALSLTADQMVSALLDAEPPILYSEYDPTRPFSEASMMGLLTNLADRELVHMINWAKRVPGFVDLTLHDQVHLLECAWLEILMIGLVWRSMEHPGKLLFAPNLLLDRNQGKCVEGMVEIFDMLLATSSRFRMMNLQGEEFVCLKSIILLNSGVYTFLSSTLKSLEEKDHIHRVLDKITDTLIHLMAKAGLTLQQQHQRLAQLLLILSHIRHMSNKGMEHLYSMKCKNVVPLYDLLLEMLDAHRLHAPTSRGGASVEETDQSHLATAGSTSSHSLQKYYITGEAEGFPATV
Test: Receptor binding affinity (RBA) to human recombinant estrogen receptor alpha (REH) after 24 hours at 0 degree Centigrade
Outcome Measure: Activity (%)

[[record]]
record_smiles = "Cc1cc(O)cc(C)c1-c1ccc(CO)cc1"
numeric_result = 0.06

[[record]]
record_smiles = "CC(C)c1cc(CO)cc(Cl)c1-c1ccc(O)cc1"
numeric_result = 22

[[record]]
record_smiles = "OCc1ccc(-c2ccc(O)cc2Cl)cc1"
numeric_result = 0.03

[[record]]
record_smiles = "OCc1cc(Cl)c(-c2ccc(O)cc2)c(-c2ccc(O)cc2)c1"
numeric_result = 1

